molecular target: hERG (Kv11.1, KCNH2) (Homo sapiens, UniProt Q12809); assay: in vitro
Sequence (Q12809 whole entry): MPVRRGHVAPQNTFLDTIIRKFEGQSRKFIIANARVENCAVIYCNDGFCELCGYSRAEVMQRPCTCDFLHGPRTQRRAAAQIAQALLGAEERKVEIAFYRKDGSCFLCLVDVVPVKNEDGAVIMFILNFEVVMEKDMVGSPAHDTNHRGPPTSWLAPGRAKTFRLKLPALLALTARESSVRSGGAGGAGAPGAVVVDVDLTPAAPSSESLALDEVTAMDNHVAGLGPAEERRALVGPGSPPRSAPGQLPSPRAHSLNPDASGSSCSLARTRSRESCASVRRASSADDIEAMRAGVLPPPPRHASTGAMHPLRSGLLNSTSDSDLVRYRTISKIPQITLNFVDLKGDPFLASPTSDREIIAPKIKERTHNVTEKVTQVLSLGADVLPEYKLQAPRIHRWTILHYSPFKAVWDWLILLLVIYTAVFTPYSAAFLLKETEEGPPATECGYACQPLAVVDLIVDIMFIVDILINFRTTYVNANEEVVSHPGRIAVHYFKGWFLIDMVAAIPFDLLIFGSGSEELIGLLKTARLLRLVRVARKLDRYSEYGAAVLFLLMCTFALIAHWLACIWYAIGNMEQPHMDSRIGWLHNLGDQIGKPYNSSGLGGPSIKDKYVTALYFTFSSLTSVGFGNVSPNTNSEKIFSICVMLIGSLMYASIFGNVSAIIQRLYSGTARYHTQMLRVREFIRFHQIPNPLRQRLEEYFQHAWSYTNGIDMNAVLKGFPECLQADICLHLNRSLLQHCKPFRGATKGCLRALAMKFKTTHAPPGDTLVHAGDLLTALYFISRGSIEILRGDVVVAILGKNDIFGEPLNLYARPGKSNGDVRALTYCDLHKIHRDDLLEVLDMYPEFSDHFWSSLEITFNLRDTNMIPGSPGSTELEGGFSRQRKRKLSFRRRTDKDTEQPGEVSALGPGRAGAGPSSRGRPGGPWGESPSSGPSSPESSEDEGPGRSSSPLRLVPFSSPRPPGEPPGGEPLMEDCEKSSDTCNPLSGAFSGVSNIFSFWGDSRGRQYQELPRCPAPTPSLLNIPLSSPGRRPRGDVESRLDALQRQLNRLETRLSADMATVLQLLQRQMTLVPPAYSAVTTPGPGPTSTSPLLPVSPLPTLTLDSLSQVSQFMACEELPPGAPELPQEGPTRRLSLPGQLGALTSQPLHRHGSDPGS
Description: MMV: Malaria Box compounds were tested for inhibition of the human ether a go-go related gene (hERG), Kv11.1 channel, using IonWorks 384-well patch clamp electrophysiology at 1.1uM (3 independent assay plates up to 12 cells per concentration).

>  <compound>
O=C(Nc1ccc(C23CC4CC(CC(c5ccccc5)(C4)C2)C3)cc1)c1cccs1

>  <quantity unit>
%

>  <inhibition at 1.1 µM>
4

$$$$
>  <compound>
CCc1ccc(CNCC(O)c2ccccc2)cc1 (stereo unspecified)

>  <quantity unit>
%

>  <inhibition at 1.1 µM>
32

$$$$
>  <compound>
COc1cc2cc(C(=O)Nc3ccccc3)c(N)nc2cc1OC

>  <quantity unit>
%

>  <inhibition at 1.1 µM>
10

$$$$
>  <compound>
CCOC(=O)C1CCN(C(=O)CN2C(=O)c3ccccc3C2c2c[nH]c3ccccc23)CC1 (stereo unspecified)

>  <quantity unit>
%

>  <inhibition at 1.1 µM>
-9

$$$$
>  <compound>
Cn1c(=O)c2cc(C(=O)NCCCN3CCCCCC3)sc2c2ccccc21

>  <quantity unit>
%

>  <inhibition at 1.1 µM>
-5

$$$$
>  <compound>
Cc1ccc(-c2cc3nc4c(c(O)n3n2)CCCC4)cc1

>  <quantity unit>
%

>  <inhibition at 1.1 µM>
-4

$$$$

====

inhibition at 11.1 µM reference
molecular target: hERG (Kv11.1, KCNH2) (Homo sapiens, UniProt Q12809); test: in vitro
Description: MMV: Malaria Box compounds were tested for inhibition of the human ether a go-go related gene (hERG), Kv11.1 channel, using IonWorks 384-well patch clamp electrophysiology at 11.1uM (3 independent assay plates up to 12 cells per concentration).
reported endpoint: inhibition at 11.1 µM (%)

>  <compound>
CC(C)CNC(=O)c1c(N)n(CCc2ccccc2F)c2nc3ccccc3nc12

>  <measurement target>
hERG (Kv11.1, KCNH2) (Homo sapiens, UniProt Q12809)

>  <assay result>
-11

$$$$
>  <compound>
Cc1cccc(Nc2nc(N)c3ccccc3n2)c1

>  <measurement target>
hERG (Kv11.1, KCNH2) (Homo sapiens, UniProt Q12809)

>  <assay result>
49

$$$$
>  <compound>
Cc1ccc(Nc2nc(NCCO)c3ccccc3n2)cc1C

>  <measurement target>
hERG (Kv11.1, KCNH2) (Homo sapiens, UniProt Q12809)

>  <assay result>
81

$$$$
>  <compound>
O=c1cc(NC2CCN(CCCc3ccccc3)CC2)c2cc(Cl)ccc2o1

>  <measurement target>
hERG (Kv11.1, KCNH2) (Homo sapiens, UniProt Q12809)

>  <assay result>
101

$$$$
>  <compound>
Cc1cccc(-n2ncc3c(O)nc(-n4nc(C)cc4NC(=O)c4cc5ccccc5o4)nc32)c1

>  <measurement target>
hERG (Kv11.1, KCNH2) (Homo sapiens, UniProt Q12809)

>  <assay result>
-8

$$$$
>  <compound>
Cc1ccc(CSCc2ccc(C(=O)NC3CC3)o2)cc1

>  <measurement target>
hERG (Kv11.1, KCNH2) (Homo sapiens, UniProt Q12809)

>  <assay result>
26

$$$$
>  <compound>
CCOc1ccc(CN2CCN(CC(O)COc3ccc(OCC(O)CN4CCN(Cc5ccc(OCC)cc5)CC4)cc3)CC2)cc1 (stereo not given)

>  <measurement target>
hERG (Kv11.1, KCNH2) (Homo sapiens, UniProt Q12809)

>  <assay result>
83

$$$$
>  <compound>
CCCCc1ccc(NS(=O)(=O)c2cc3c4c(c2)CCN4C(=O)CC3)cc1

>  <measurement target>
hERG (Kv11.1, KCNH2) (Homo sapiens, UniProt Q12809)

>  <assay result>
26

$$$$
>  <compound>
O=C(Nc1ccc(-c2nc3cc4ccccc4cc3[nH]2)cc1)c1cccc(Br)c1

>  <measurement target>
hERG (Kv11.1, KCNH2) (Homo sapiens, UniProt Q12809)

>  <assay result>
-2

$$$$
>  <compound>
O=C(NNc1cc(N2CCCC2)nc(N2CCCC2)n1)c1ccccc1

>  <measurement target>
hERG (Kv11.1, KCNH2) (Homo sapiens, UniProt Q12809)

>  <assay result>
35

$$$$

Source of measurements: ChEMBL document CHEMBL3301458
